I'd appreciate it if you could supply MIC values for the items below.
# Tested on: L6
# experiment-notes: Cytotoxicity against rat L6 cells after 4 days
# Assay type: cell-based
# protocol-conditions: L6, 96 h
Give bare numbers, in µg/mL.

molecule	value
CC(=O)c1c(O[C@@H]2O[C@H](CO)[C@@H](O)[C@H](O)[C@H]2O)cc(O)c(-c2c(C)cc(O)c3c2C(=O)c2cccc(O)c2C3=O)c1O [BULBINELONESIDE D]	90

Now turn to the next molecule.
Assign MIC to the following record: COc1cc(O)c(-c2c(C)cc(O)c3c2C(=O)c2cccc(O)c2C3=O)c(O)c1C(C)=O 33

----------
# Tested on: Trypanosoma cruzi
# experiment-notes: Trypanocidal activity against trypomastigotes of Trypanosoma cruzi Tulahuen C2C4 infected in rat L6 cells after 4 days
# Format: functional, organism-based
# protocol-conditions: L6, 96 h
Answer each item with its documented IC50.
Give bare numbers, in µg/mL.

compound	value
COc1c(C(C)=O)c(O)cc(O)c1-c1c(CO)cc(O)c2c1C(=O)c1cccc(O)c1C2=O [GABOROQUINONE A]	33.1

Could you report IC50 for every entry in the following list?
1. COc1cc(O)c(-c2c(C)cc(O)c3c2C(=O)c2cccc(O)c2C3=O)c(O)c1C(C)=O [KNIPHOLONE]
2. CC(=O)c1c(O[C@@H]2O[C@H](CO)[C@@H](O)[C@H](O)[C@H]2O)cc(O)c(-c2c(C)cc(O)c3c2C(=O)c2cccc(O)c2C3=O)c1O [BULBINELONESIDE D]

1: 7.6; 2: 6.8
